Sourced from the supplement of paper PMC8497498

System: Plasmodium vivax liver stage (primary human hepatocyte culture)
setup.conditions: P. vivax isolate: Pv914; hepatocyte lot: BGW; assay mode: Prophylactic, 6-day
Assign EC50 schizont net growth area to each entry below.

In the examples that follow, each entry is paired with its recorded EC50 schizont net growth area.
COc1cc(NC(C)CCCN)c2nccc(C)c2c1Oc1ccc(Cl)c(Cl)c1 (stereo unspecified) [NPC-1161B]: > 0.37 µM
OC(c1cc(C(F)(F)F)nc2c(C(F)(F)F)cccc12)C1CCCCN1 (racemic) [(±)-Mefloquine]: > 1.11 µM
Clc1ccc2c(N[C@H]3CCCC[C@@H]3Nc3ccnc4cc(Cl)ccc34)ccnc2c1 [Ro 47-7737]: > 3.33 µM

Batch: EC50 schizont net growth area for all items listed.
1. CC1CC(C)C(=O)C(C(O)CC2CC(=O)NC(=O)C2)C1 (stereo unspecified) [Cycloheximide]
2. O=C(NCCN1CCCC1)c1cc(-c2ccc(CN3CCOCC3)cc2)nc2ccc(F)cc12
3. CCNCc1cc(Nc2ccnc3cc(Cl)ccc23)ccc1O [N-Desethylamodiaquine]

["1.39 µM", "0.00257 µM", "> 3.33 µM"]
